# Assay System: T1, SARS-CoV-2 RBD-mFc (SARS-CoV-2, UniProt P0DTC2 319-541)
# T1 construct: range 319-541
# Experiment Summary: competition ELISA: RBD-mFc on coated ACE2-His

{"columns": ["Binder", "IC50 (nM)"],
 "data": [
  ["SA4079 (antibody, V domains shown) VH: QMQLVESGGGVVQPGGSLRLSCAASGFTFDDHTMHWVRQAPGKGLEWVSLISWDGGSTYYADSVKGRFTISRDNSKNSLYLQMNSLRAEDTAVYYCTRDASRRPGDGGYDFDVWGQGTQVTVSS VL: QAVVTQEPSLTVSPGGTATLTCGSSTGTVTRGHWPYWFQQKPGQAPRTLIYDTDTKHSWTPARFSGSLLGGKAALTLSGAQPEDEADYYCLLSYSDSRVFGTGTKVTVL", 3.62],
  ["SA4114 (antibody, V domains shown) VH: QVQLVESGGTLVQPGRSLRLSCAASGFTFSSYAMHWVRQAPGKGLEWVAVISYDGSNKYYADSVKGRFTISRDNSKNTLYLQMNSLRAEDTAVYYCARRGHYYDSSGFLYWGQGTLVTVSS VL: DIQMTQSPSSLSASVGDRVTITCRAGQSIDNYLNWYQQKPGKAPKLLIYAASTLHSGVPSRFSGSGSGTDFTLTISSLQPDDFATYYCQQSYSIPRTFGQGTKLEIK", 0.364],
  ["SA3838 (antibody, V domains shown) VH: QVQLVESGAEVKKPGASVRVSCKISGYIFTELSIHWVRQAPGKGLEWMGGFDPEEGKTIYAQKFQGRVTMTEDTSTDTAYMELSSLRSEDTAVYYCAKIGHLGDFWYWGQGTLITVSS VL: QSALTQPASVSGSPGQSITISCTGTTSDIGSYDYVSWYQQHPGKAPKLIIYGVTRRPSGVSNRFSGSKSGNTASLTISRLLTEDEAEYYCATYTSSATYVFGTGTKVTVL", 1.62],
  ["SA4086 (antibody, V domains shown) VH: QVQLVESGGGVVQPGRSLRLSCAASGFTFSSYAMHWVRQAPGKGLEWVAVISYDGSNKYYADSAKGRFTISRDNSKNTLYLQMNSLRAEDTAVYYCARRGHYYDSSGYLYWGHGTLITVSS VL: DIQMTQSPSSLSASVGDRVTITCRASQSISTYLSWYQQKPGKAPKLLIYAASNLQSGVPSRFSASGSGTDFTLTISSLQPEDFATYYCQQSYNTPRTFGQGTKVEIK", 1.24]
]}
